resultType: melting point (°C)
Record the value in °C, omitting the unit from your answer.

Recorded melting point, per entry:
compound | observedValue
Cc1cc(Br)ccc1N=C=O | 49
O=C(O)C1CCCC1C(=O)O (configuration not stated) | 160
OCCC12CC3CC(CC(C3)C1)C2 | 74
CCCCCF | -120
CCOC(=O)C1=C(C)OC(N)=C(c2nc3ccccc3s2)C1c1ccc(Cl)cc1 (configuration not stated) | 189

Lab note: `CCOC(=O)C(Cl)(Cc1cc(CC(Cl)(C(=O)OCC)C(=O)OCC)c([N+](=O)[O-])cc1[N+](=O)[O-])C(=O)OCC` gave melting point of 146

Recorded melting point (compound CC12CCC(=O)C=C1CCC1C3CCC4(CCC(=O)O4)C3CCC12C (configuration not stated) ): 158

// field: melting point; key: `CC(=O)c1ccc2c(c1)Cc1ccccc1-2` ; value = 130

What the record says about `CC(=O)C=CC1=C(C)CCCC1(C)C` : melting point is -49
